# measuredTarget: recombinant GST-LRRK2 (wild-type) (Homo sapiens (Human), UniProt Q5S007)
# Sequence (Q5S007 whole entry): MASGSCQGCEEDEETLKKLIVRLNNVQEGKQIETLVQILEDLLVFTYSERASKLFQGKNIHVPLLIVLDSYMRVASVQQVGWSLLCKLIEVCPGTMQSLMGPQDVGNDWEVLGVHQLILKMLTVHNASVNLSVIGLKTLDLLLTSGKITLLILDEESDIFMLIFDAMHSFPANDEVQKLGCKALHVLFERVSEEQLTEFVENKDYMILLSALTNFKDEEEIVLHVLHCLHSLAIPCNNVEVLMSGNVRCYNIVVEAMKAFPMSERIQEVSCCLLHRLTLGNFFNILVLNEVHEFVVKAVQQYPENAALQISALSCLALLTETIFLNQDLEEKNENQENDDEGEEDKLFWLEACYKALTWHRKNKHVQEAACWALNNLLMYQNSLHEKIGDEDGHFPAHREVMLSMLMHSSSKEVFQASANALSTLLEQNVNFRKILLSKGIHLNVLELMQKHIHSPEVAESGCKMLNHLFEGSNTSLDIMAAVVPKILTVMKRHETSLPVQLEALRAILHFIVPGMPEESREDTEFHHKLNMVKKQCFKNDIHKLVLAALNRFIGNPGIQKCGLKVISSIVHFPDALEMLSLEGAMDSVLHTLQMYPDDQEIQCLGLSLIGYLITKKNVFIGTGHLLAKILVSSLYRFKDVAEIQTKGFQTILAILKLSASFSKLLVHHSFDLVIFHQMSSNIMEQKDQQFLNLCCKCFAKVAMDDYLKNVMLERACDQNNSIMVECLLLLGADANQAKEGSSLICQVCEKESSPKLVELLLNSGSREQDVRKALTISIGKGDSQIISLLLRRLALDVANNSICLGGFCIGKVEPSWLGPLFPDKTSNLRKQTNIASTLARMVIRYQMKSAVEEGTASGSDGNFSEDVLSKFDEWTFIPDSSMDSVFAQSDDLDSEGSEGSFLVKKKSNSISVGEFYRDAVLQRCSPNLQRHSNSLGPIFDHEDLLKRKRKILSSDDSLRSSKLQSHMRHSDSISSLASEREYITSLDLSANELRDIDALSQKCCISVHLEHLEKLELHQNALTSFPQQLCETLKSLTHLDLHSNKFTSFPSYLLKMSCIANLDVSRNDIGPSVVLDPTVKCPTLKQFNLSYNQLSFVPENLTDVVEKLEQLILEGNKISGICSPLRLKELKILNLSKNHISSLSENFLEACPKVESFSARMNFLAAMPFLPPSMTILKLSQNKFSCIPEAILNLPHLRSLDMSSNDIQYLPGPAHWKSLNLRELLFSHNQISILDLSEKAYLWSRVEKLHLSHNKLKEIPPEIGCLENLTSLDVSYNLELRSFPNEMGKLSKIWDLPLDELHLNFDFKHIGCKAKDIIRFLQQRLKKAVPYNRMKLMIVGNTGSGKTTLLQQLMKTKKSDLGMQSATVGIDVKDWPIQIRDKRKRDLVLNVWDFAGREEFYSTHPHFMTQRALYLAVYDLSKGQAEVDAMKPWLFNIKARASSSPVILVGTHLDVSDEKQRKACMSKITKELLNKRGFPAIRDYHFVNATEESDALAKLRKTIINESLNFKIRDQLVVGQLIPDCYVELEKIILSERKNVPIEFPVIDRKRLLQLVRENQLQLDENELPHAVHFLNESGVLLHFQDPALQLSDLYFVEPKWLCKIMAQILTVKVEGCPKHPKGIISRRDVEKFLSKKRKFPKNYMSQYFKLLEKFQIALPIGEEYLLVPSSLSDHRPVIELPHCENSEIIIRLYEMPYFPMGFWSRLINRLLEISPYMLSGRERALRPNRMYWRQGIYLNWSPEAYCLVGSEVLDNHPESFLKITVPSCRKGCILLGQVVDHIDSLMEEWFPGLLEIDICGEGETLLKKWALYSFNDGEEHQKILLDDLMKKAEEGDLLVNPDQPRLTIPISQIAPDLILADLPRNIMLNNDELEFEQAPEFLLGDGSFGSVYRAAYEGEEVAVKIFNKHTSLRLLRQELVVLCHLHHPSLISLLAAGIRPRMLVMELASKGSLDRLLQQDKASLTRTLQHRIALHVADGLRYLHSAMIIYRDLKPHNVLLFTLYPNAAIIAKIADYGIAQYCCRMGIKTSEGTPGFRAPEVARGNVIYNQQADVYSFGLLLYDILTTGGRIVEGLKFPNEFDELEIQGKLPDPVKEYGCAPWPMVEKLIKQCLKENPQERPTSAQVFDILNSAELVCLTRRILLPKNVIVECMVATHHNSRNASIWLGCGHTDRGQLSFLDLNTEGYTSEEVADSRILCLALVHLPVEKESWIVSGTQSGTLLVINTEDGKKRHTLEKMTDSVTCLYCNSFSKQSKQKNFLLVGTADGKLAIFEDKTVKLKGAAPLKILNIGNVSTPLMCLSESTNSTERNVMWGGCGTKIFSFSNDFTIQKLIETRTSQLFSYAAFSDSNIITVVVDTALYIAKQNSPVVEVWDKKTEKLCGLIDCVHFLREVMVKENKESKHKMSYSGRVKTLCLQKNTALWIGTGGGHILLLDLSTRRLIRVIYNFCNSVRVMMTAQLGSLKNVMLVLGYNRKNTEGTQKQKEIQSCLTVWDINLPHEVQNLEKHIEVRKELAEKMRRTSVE
# experimentalProtocol: LRRK2 TR-FRET peptide assay (in vitro kinase activity), wild-type
# Assay type: biochemical
# conditionDescription: 100 μM ATP, 100 nM biotin-LRRKtide substrate, 10 nM kinase, 60 minutes at room temperature
reportedMetric: IC50 (µM)

I. C[C@@H](Nc1c(C#N)nnc2cc(-c3ccc(S(C)(=O)=O)cc3)ccc12)C1CC1 [Compound 2-42]
II. CC(C)Nc1c(C(N)=O)nnc2ccc(-c3ccc(S(C)(=O)=O)cc3)cc12 [Compound 2-125]
Q. When their IC50 values are compared, which is larger, I or II ? Please indicate the selected item by its label.
A. II

* * *

# measuredTarget: recombinant GST-LRRK2 (wild-type) (Homo sapiens (Human))
# experimentalProtocol: LRRK2 TR-FRET peptide assay (in vitro kinase activity), wild-type
# Type: biochemical
# conditionDescription: 100 μM ATP, 100 nM biotin-LRRKtide substrate, 10 nM kinase, 60 minutes at room temperature
reportedMetric: IC50 (nM)

Worked examples follow.
For reference, reported IC50 for COc1ccc(F)cc1-c1ccc2c(NC(C)C)c(C(N)=O)nnc2c1 stands at 590

For reference, reported IC50 for C[C@@H](Nc1c(C(N)=O)nnc2cc(-c3ccc4c(c3)CC(=O)N4)ccc12)C1CC1 stands at 11

For reference, reported IC50 for C=Cc1ccc2c(NC(C)C)c(C(N)=O)nnc2c1 stands at 120

For reference, reported IC50 for C[C@@H](Nc1c(C(N)=O)nnc2cc(-c3cccc(OCC4CC4)c3)ccc12)C1CC1 stands at 51

For reference, reported IC50 for C=C(C)c1ccc2c(NC(C)C)c(C(N)=O)nnc2c1 stands at 76

For reference, reported IC50 for NC(=O)c1nnc2cc(-c3ccncc3)ccc2c1NCCCO stands at 120

I. CC(C)Nc1c(C(N)=O)nnc2ccc(-c3cnn(C)c3)cc12
II. CC(C)Nc1c(C(N)=O)nnc2cc(-c3cncnc3)ccc12
Q. When their IC50 values are compared, which is larger, I or II ? Please indicate the selected item by its label.
A. I

I. C#Cc1nnc2cc(-c3ccc(S(C)(=O)=O)cc3)ccc2c1NC(C)C
II. CC(C)Nc1c(C(N)=O)nnc2ccc(-c3nccs3)cc12
III. C[C@@H](Nc1c(C(N)=O)nnc2cc(-c3ccc(S(C)(=O)=O)cc3)ccc12)C1CCOCC1
IV. COc1ccc(-n2cccn2)cc1-c1ccc2c(N[C@H](C)C3CC3)c(C(N)=O)nnc2c1
V. CC(C)Nc1c(C(N)=O)nnc2cc(-c3ccc(S(C)(=O)=O)cc3)ccc12
Q. Rank by IC50 (largest to smallest). Kindly provide the labels arranged according to the requested ordering.
A. I, II, IV, III, V

I. CC(C)(C)Nc1c(C(N)=O)nnc2cc(-c3ccc(S(C)(=O)=O)cc3)ccc12
II. CS(=O)(=O)c1ccc(-c2ccc3c(NC45CC6CC(CC(C6)C4)C5)c(C(N)=O)nnc3c2)cc1
Q. Quick one: lower IC50, I or II ? Please indicate the selected item by its label.
A. I

* * *

# measuredTarget: recombinant GST-LRRK2 (wild-type) (Homo sapiens (Human), UniProt Q5S007)
# experimentalProtocol: LRRK2 TR-FRET peptide assay (in vitro kinase activity), wild-type
# Format: biochemical
reportedMetric: pIC50
// scale note: pIC50 = -log10(conc_M); give the bare number

Given the molecule CC(C)Nc1c(C(N)=O)nnc2cc(N3CCN(C)CC3)ccc12 and test system recombinant GST-LRRK2 (wild-type) (Homo sapiens (Human), UniProt Q5S007), the measured pIC50 is 7.28

* * *

# measuredTarget: recombinant GST-LRRK2 (wild-type) (Homo sapiens (Human))
# experimentalProtocol: LRRK2 TR-FRET peptide assay (in vitro kinase activity), wild-type
# Assay type: biochemical
# conditionDescription: 100 μM ATP, 100 nM biotin-LRRKtide substrate, 10 nM kinase, 60 minutes at room temperature
reportedMetric: IC50 (µM)

For reference, reported IC50 for C[C@@H](Nc1c(C(N)=O)nnc2cc(-c3ccc(N4CCOC4=O)cc3)ccc12)C1CC1 stands at 0.001

For reference, reported IC50 for CC(C)(C)c1ccc2nnc(C(N)=O)c(N)c2c1 stands at 4

For reference, reported IC50 for C[C@@H](Nc1c(C(N)=O)nnc2cc(-c3cccc4c3CC(=O)N4)ccc12)C1CC1 stands at 0.018

For reference, reported IC50 for CNC(=O)c1nnc2cc(C3CC3)ccc2c1N[C@H](C)C1CC1 stands at 1.95

For reference, reported IC50 for CC(C)Nc1c(C(N)=O)nnc2cc(-c3cn[nH]c3)ccc12 stands at 0.009

For reference, reported IC50 for CC(C)Nc1c(-c2nccc(=O)[nH]2)nnc2cc(-c3ccc(S(C)(=O)=O)cc3)ccc12 stands at 0.28

1. CS(=O)(=O)c1ccc(-c2ccc3c(NCC4CC4)c(C(N)=O)nnc3c2)cc1
2. CC(C)Nc1c(-c2nc[nH]n2)nnc2cc(-c3ccc(S(C)(=O)=O)cc3)ccc12
Q. Quick one: lower IC50, 1 or 2 ? Please indicate the selected item by its label.
A. 1
(1: 0.017 µM, 2: 0.42 µM)

* * *

# measuredTarget: recombinant GST-LRRK2 (wild-type) (Homo sapiens (Human), UniProt Q5S007)
# experimentalProtocol: LRRK2 TR-FRET peptide assay (in vitro kinase activity), wild-type
# Assay type: biochemical
# conditionDescription: 100 μM ATP, 100 nM biotin-LRRKtide substrate, 10 nM kinase, 60 minutes at room temperature
reportedMetric: IC50 (nM)

Worked examples follow.
Given the molecule CS(=O)(=O)c1ccc(-c2ccc3c(NC4CCOC4)c(C(N)=O)nnc3c2)cc1 (stereo not drawn) [Compound 2-23] and test system recombinant GST-LRRK2 (wild-type) (Homo sapiens (Human), UniProt Q5S007), the measured IC50 is 17

Given the molecule COc1cc(C(=O)N(C)C)ccc1-c1ccc2c(N[C@H](C)C3CC3)c(C(N)=O)nnc2c1 [Compound 2-118] and test system recombinant GST-LRRK2 (wild-type) (Homo sapiens (Human), UniProt Q5S007), the measured IC50 is 10

Given the molecule CC(C)Nc1c(Cl)nnc2cc(-c3ccc(S(C)(=O)=O)cc3)ccc12 [Compound 3-84] and test system recombinant GST-LRRK2 (wild-type) (Homo sapiens (Human), UniProt Q5S007), the measured IC50 is 1600

A. CC(C)Nc1c(C(N)=O)nnc2ccc(-c3ccncc3)cc12 [Compound 2-126]
B. CNC(=O)c1nnc2cc(-c3ccc(S(C)(=O)=O)cc3)ccc2c1N[C@H](C)C1CC1 [Compound 12-231]
Q. When their IC50 values are compared, which is larger, A or B ? Please indicate the selected item by its label.
A. B
(B: 170 nM, A: 30 nM)

A. C[C@@H](Nc1c(C(N)=O)nnc2cc(-c3ccn(C)c(=O)c3)ccc12)C1CC1 [Compound 2-122]
B. CC(C)Nc1c(C(N)=O)nnc2cc(-c3ccccc3F)ccc12 [Compound 2-47]
C. CC(C)Nc1c(C(N)=O)nnc2cc(Sc3ccccc3)ccc12 [Compound 4-76]
Q. I would appreciate it if you could sort these 3 molecules by IC50, starting from the smallest number. Kindly provide the labels arranged according to the requested ordering.
A. A, B, C
(A: 8 nM, B: 210 nM, C: 560 nM)

* * *

# measuredTarget: recombinant GST-LRRK2 (wild-type) (Homo sapiens (Human))
# experimentalProtocol: LRRK2 TR-FRET peptide assay (in vitro kinase activity), wild-type
# Assay type: biochemical
# conditionDescription: 100 μM ATP, 100 nM biotin-LRRKtide substrate, 10 nM kinase, 60 minutes at room temperature
pIC50: −log10 of the molar value.
reportedMetric: pIC50

For reference, reported pIC50 for Cc1nnc2cc(-c3ccc(S(C)(=O)=O)cc3)ccc2c1NC(C)C stands at 4.67

For reference, reported pIC50 for CC(C)Nc1c(C#N)nnc2cc(-c3ccc(S(C)(=O)=O)cc3)ccc12 stands at 6.21

For reference, reported pIC50 for CC(C)Nc1c(C(N)=O)nnc2ccc(-c3cncs3)cc12 stands at 6.96

For reference, reported pIC50 for COc1cc(-c2nccn2C)ccc1-c1ccc2c(N[C@H](C)C3CC3)c(C(N)=O)nnc2c1 stands at 8.05

For reference, reported pIC50 for CS(=O)(=O)c1ccc(-c2ccc3c(NC4CCC4)c(C(N)=O)nnc3c2)cc1 stands at 8.00

1. C[C@@H](Nc1c(C(N)=O)nnc2cc(-c3ccc(C(=O)N(C)C)cc3)ccc12)C1CC1
2. CC[C@@H](C)Nc1c(C#N)nnc2cc(-c3ccc(S(C)(=O)=O)cc3)ccc12
3. CC(C)Nc1c(C(N)=O)nnc2cc(N3CCCC3=O)ccc12
4. COc1ccccc1Nc1ccc2c(NC(C)C)c(C(N)=O)nnc2c1
Q. I would appreciate it if you could sort these 4 compounds by pIC50, starting from the smallest number. Kindly provide the labels arranged according to the requested ordering.
A. 2, 3, 4, 1
